This collection of values is drawn from paper PMC3794980.

Biological target: DRB1*0404 (Homo sapiens, UniProt P01903+P01911, A100R/A169T/F76Y/I96L/K127E/L162R/M171V/N62H/P40V/Q125Y/R42H/S133A/S149N/S66Y/V209L/W38E)
Assay: biochemical
assay endpoint: IC50 (nM)
Give the number; nM is assumed, so skip it.

Consider the worked cases shown below.
>  <compound smiles>
CC[C@H](C)[C@H](NC(=O)[C@@H]1CCCN1C(=O)[C@H](CC(C)C)NC(=O)CNC(=O)[C@@H](N)CCCCN)C(=O)N[C@@H](CCCNC(=N)N)C(=O)N[C@@H](Cc1ccc(O)cc1)C(=O)N[C@@H](CCC(N)=O)C(=O)N[C@H](C(=O)N[C@H](C(=O)N[C@@H](C)C(=O)N[C@H](C(=O)N[C@@H](CCCCN)C(=O)N[C@@H](CO)C(=O)N[C@@H](CCC(=O)O)C(=O)O)[C@@H](C)O)[C@@H](C)O)[C@@H](C)O

>  <unit name>
nM

>  <IC50>
310

$$$$
>  <compound smiles>
CC(C)C[C@H](NC(=O)[C@H](CCC(=O)O)NC(=O)[C@H](CCCCN)NC(=O)[C@@H](N)CCCNC(=N)N)C(=O)N[C@@H](CC(C)C)C(=O)N[C@H](C(=O)N[C@H](C(=O)N[C@@H](Cc1ccccc1)C(=O)N[C@@H](CCCCN)C(=O)N[C@@H](CC(N)=O)C(=O)N[C@@H](C)C(=O)N[C@@H](Cc1c[nH]cn1)C(=O)N[C@@H](C)C(=O)N[C@@H](CCCCN)C(=O)N[C@@H](CCCCN)C(=O)O)[C@@H](C)O)C(C)C

>  <unit name>
nM

>  <IC50>
1590

$$$$

Now turn to the next compound.
Ask: Using known records, supply IC50 for `CC[C@H](C)[C@H](NC(=O)[C@H](CCCCN)NC(=O)[C@H](C)NC(=O)[C@H](CCCCN)NC(=O)CNC(=O)[C@H](Cc1c[nH]c2ccccc12)NC(=O)[C@@H](N)[C@@H](C)O)C(=O)N[C@H](C(=O)N[C@H](C(=O)N[C@@H](C)C(=O)N[C@@H](CCC(=O)O)C(=O)N[C@H](C(=O)N[C@@H](CCC(N)=O)C(=O)N[C@@H](CC(N)=O)C(=O)N[C@@H](CO)C(=O)O)[C@@H](C)O)[C@@H](C)O)C(C)C`
Reply: 695

---

Molecular target: DRB5*0101 (Homo sapiens, UniProt P01903+Q30154)
Test: biochemical
Assay type: binding
# IC50 per record follows
Give the number; µM is assumed, so skip it.

>  <molecule>
CC(C)C[C@H](N)C(=O)N[C@H](C(=O)N[C@@H](Cc1ccc(O)cc1)C(=O)N[C@@H](CCC(N)=O)C(=O)N[C@@H](CC(N)=O)C(=O)N[C@@H](CCCCN)C(=O)N[C@H](C(=O)N[C@H](C(=O)N[C@@H](CCCCN)C(=O)N[C@H](C(=O)N[C@@H](CCC(N)=O)C(=O)N[C@@H](CCCNC(=N)N)C(=O)N1CCC[C@H]1C(=O)N[C@H](C(=O)N1CCC[C@H]1C(=O)N[C@@H](CCCCN)C(=O)NCC(=O)O)[C@@H](C)O)C(C)C)C(C)C)C(C)C)[C@@H](C)O [NS5 570-586]

>  <experimental system>
DRB5*0101 (Homo sapiens, UniProt P01903+Q30154)

>  <IC50 [µM]>
0.028

$$$$

Now turn to the next molecule.
Ask: Using known records, supply IC50 for CC[C@H](C)[C@H](N)C(=O)N[C@@H](Cc1ccccc1)C(=O)N[C@@H](CCSC)C(=O)N[C@H](C(=O)N[C@@H](C)C(=O)N[C@H](C(=O)N1CCC[C@H]1C(=O)N1CCC[C@H]1C(=O)NCC(=O)N[C@H](C(=O)N[C@@H](C)C(=O)N[C@@H](CC(=O)O)C(=O)N[C@@H](C)C(=O)N[C@@H](Cc1ccccc1)C(=O)N1CCC[C@H]1C(=O)O)[C@@H](C)O)[C@@H](C)O)[C@@H](C)O [NS3 313-327]
Reply: 13.9

---

Biological target: DRB5*0101 (Homo sapiens, UniProt P01903+Q30154)
Assay: biochemical
pIC50: −log10 of the molar value.
So basically: pIC50 at 5 or higher? That is T. Lower than 5? That is F.

>  <compound>
CSCC[C@H](NC(=O)[C@H](CC(C)C)NC(=O)[C@H](CCCNC(=N)N)NC(=O)[C@H](Cc1c[nH]cn1)NC(=O)[C@H](CC(=O)O)NC(=O)[C@H](CS)NC(=O)[C@H](CC(C)C)NC(=O)[C@H](CCC(N)=O)NC(=O)[C@@H](NC(=O)[C@H](Cc1ccc(O)cc1)NC(=O)[C@@H](NC(=O)[C@@H](N)CCC(=O)O)C(C)C)[C@@H](C)O)C(=O)N[C@@H](CO)C(=O)N[C@@H](C)C(=O)N[C@@H](C)C(=O)O [NS1 173-187]

>  <group>
T

$$$$
>  <compound>
CC[C@H](C)[C@H](NC(=O)[C@H](Cc1ccc(O)cc1)NC(=O)CNC(=O)[C@H](CCCNC(=N)N)NC(=O)[C@H](C)N)C(=O)N[C@@H](CO)C(=O)N[C@H](C(=O)N[C@@H](CCCNC(=N)N)C(=O)N[C@H](C(=O)NCC(=O)N[C@@H](CCSC)C(=O)NCC(=O)N[C@@H](CCC(=O)O)C(=O)N[C@@H](C)C(=O)N[C@@H](C)C(=O)O)C(C)C)[C@@H](C)O [NS3 297-311]

>  <group>
T

$$$$
>  <compound>
CC(C)C[C@H](NC(=O)[C@H](CCCCN)NC(=O)[C@@H](NC(=O)[C@H](CCCCN)NC(=O)[C@H](CCC(N)=O)NC(=O)[C@H](Cc1ccc(O)cc1)NC(=O)[C@H](CCC(=O)O)NC(=O)[C@@H](N)[C@@H](C)O)[C@@H](C)O)C(=O)N[C@@H](CC(N)=O)C(=O)N[C@@H](CC(=O)O)C(=O)N[C@@H](Cc1c[nH]c2ccccc12)C(=O)N[C@@H](CC(=O)O)C(=O)N[C@@H](Cc1ccccc1)C(=O)N[C@H](C(=O)N[C@H](C(=O)O)C(C)C)C(C)C [NS3 393-407]

>  <group>
F

$$$$

Now look at this one.
Ask: Is reported pIC50 greater than or equal to 5 here: CSCC[C@H](NC(=O)[C@@H](NC(=O)[C@H](CCC(N)=O)NC(=O)[C@H](Cc1ccccc1)NC(=O)[C@H](CC(N)=O)NC(=O)[C@H](CCCCN)NC(=O)[C@@H]1CCCN1C(=O)[C@@H](N)CC(N)=O)[C@@H](C)O)C(=O)N1CCC[C@H]1C(=O)NCC(=O)N[C@H](C(=O)N[C@@H](Cc1ccccc1)C(=O)N[C@@H](CCC(N)=O)C(=O)N[C@H](C(=O)N[C@H](C(=O)O)[C@@H](C)O)[C@@H](C)O)[C@@H](C)O [NS3 105-119]
Reply: T

---

Biological target: DRB1*0401 (Homo sapiens, UniProt P01903+P01911, A100K/A169T/F76Y/I96L/K127E/L162R/M171V/N62H/P40V/Q125Y/R42H/S133A/S149N/S66Y/V115G/V209L/W38E)
Assay: biochemical
Assay type: binding
Where no end group is shown, it is not given here.
assay endpoint: IC50 (nM)
Give the number; nM is assumed, so skip it.

Ask: Using known records, supply IC50 for EGKVVQYENLKYTVI [Envelope 126-140]
Reply: 1380

---

Target: DRB3*0101 (Homo sapiens, UniProt P01903+P79483)
Experiment: biochemical
Type: binding
# IC50 per record follows
Give the number; nM is assumed, so skip it.

Ask: Using known records, supply IC50 for CC[C@H](C)[C@H](NC(=O)[C@@H](NC(=O)[C@@H]1CCCN1C(=O)[C@@H](N)CO)[C@@H](C)CC)C(=O)N[C@@H](CC(N)=O)C(=O)N[C@@H](CCCNC(=N)N)C(=O)N[C@@H](CCC(=O)O)C(=O)NCC(=O)N[C@@H](CCCCN)C(=O)N[C@H](C(=O)N[C@H](C(=O)NCC(=O)N[C@@H](CC(C)C)C(=O)N[C@@H](Cc1ccc(O)cc1)C(=O)NCC(=O)O)C(C)C)C(C)C [NS3 137-151]
Reply: 9580

Ask: Using known records, supply IC50 for CC[C@H](C)[C@H](NC(=O)[C@H](CCC(N)=O)NC(=O)[C@@H](N)CCCCN)C(=O)N[C@@H](C)C(=O)N[C@@H](CC(N)=O)C(=O)N[C@@H](CCC(=O)O)C(=O)N[C@@H](CC(C)C)C(=O)N[C@@H](CC(N)=O)C(=O)N[C@@H](Cc1ccc(O)cc1)C(=O)N[C@H](C(=O)N[C@@H](CC(C)C)C(=O)N[C@@H](Cc1c[nH]c2ccccc12)C(=O)N[C@@H](CCC(=O)O)C(=O)N[C@@H](CC(N)=O)C(=O)N[C@@H](CC(N)=O)C(=O)O)[C@@H](C)CC [NS1 69-83]
Reply: 50

Ask: Using known records, supply IC50 for CSCC[C@H](NC(=O)[C@H](CC(C)C)NC(=O)[C@H](CCCNC(=N)N)NC(=O)[C@H](Cc1c[nH]cn1)NC(=O)[C@H](CC(=O)O)NC(=O)[C@H](CS)NC(=O)[C@H](CC(C)C)NC(=O)[C@H](CCC(N)=O)NC(=O)[C@@H](NC(=O)[C@H](Cc1ccc(O)cc1)NC(=O)[C@@H](NC(=O)[C@@H](N)CCC(=O)O)C(C)C)[C@@H](C)O)C(=O)N[C@@H](CO)C(=O)N[C@@H](C)C(=O)N[C@@H](C)C(=O)O [NS1 173-187]
Reply: 57

Ask: Using known records, supply IC50 for CC(C)C[C@H](NC(=O)[C@H](Cc1ccccc1)NC(=O)CN)C(=O)N[C@@H](CC(N)=O)C(=O)N[C@@H](CCC(=O)O)C(=O)N[C@@H](CC(=O)O)C(=O)N[C@@H](Cc1c[nH]cn1)C(=O)N[C@@H](Cc1c[nH]c2ccccc12)C(=O)N[C@@H](Cc1ccccc1)C(=O)N[C@@H](CO)C(=O)N[C@@H](CCCNC(=N)N)C(=O)N[C@@H](CCC(=O)O)C(=O)N[C@@H](CC(N)=O)C(=O)N[C@@H](CO)C(=O)N[C@@H](Cc1ccc(O)cc1)C(=O)N[C@@H](CO)C(=O)NCC(=O)O [NS5 489-505]
Reply: 387

Ask: Using known records, supply IC50 for CC[C@H](C)[C@H](NC(=O)[C@H](CCSC)NC(=O)[C@H](CC(=O)O)NC(=O)[C@H](CO)NC(=O)[C@H](CCC(=O)O)NC(=O)[C@H](CC(C)C)NC(=O)[C@@H](NC(=O)CNC(=O)[C@H](CC(N)=O)NC(=O)[C@@H](N)CO)C(C)C)C(=O)N[C@H](C(=O)N1CCC[C@H]1C(=O)N[C@@H](CCCCN)C(=O)N[C@@H](CO)C(=O)N[C@@H](CC(C)C)C(=O)O)[C@@H](C)CC [NS1 233-247]
Reply: 159
